These data points were gathered from PubChem BioAssay (NCI).

tested on: UACC-257 melanoma; experiment: NCI-60 one-dose screen, 48 h (100 = growth as untreated, 0 = no growth, -100 = all killed); details: 10 µM unless noted
The panel holds about 83,000 compounds, 20% with a hit somewhere; the sample as a whole holds those more often.
Measurement Name: growth (%)
Please give a number only; it is taken to be in %.

Recorded results for 5 compounds are shown here.
>  <Compound>
N#Cc1ccccc1C#Cc1ccccc1C#Cc1ccc(OCCCCCCOc2ccc(C#Cc3ccccc3C#Cc3ccccc3C#N)cc2)cc1

>  <growth (%)>
103

$$$$
>  <Compound>
O=CN1N=C(c2ccc(Nc3ccnc4cc(Cl)ccc34)cc2)CC1c1ccc(Cl)cc1 (stereo not given)

>  <growth (%)>
77.7

$$$$
>  <Compound>
CCOc1cc(/C=C/C(=O)CC(=O)/C=C/c2ccc(OC(=O)CNCCN(CC)CC)c(OCC)c2)ccc1OC(=O)CNCCN(CC)CC

>  <growth (%)>
23.6

$$$$
>  <Compound>
c1ccc(COc2ccc(Nc3ncnc4c3cnn4-c3ccccc3)cc2)cc1

>  <growth (%)>
121

$$$$
>  <Compound>
CN1CCN(c2nc3scc(-c4ccccc4)c3c(=O)[nH]2)CC1

>  <growth (%)>
108

$$$$

Query string: Consider the compound `COc1ccc(NC(=O)[C@@H]2C[C@H]2c2ccccc2)c(C(N)=O)c1` and give its measured growth.
Result string: 92.9

Query string: What about `CSc1nc(N)c2c(n1)N(C)C=NS2(=O)=O` ?
Result string: 114

Query string: What about `COC(=O)c1cc2oc(/C=N\NC(=O)c3cc4oc(C)c(C)c4[nH]3)cc2[nH]1` ?
Result string: 114

Query string: What about CC1C(C)N(C(=O)CCl)c2ccccc2N1C(=O)CCl (stereo not given) ?
Result string: -70.3

Query string: What about O=C1CSC(c2ccccc2Cl)N1c1nnc(Cn2nnc3ccccc32)o1 (stereo not given) ?
Result string: 94.7
